tested on: BEAS-2B cells; test: MTT cell viability, BEAS-2B; type: cell-based; conditions: Homo sapiens, 48 h, MTT assay
Measurement Type: IC50 (µM)

compound="COc1cc(C)c(C(=O)Oc2cc(C)c(C(=O)O)c(O)c2C)c(OC)c1C [DA, diffractaic acid, reference compound]" result_units=µM endpoint_value=54.3

---

concentration at 24 h listing for selected compounds.
assay: Tissue distribution in CT26 tumor-bearing mice (LC–MS/MS); format: in vivo; conditions: mouse, plasma, Balb/c mice, 10 mg/kg, read-out: quantity in plasma
Measurement Type: concentration at 24 h

compound_structure_string=COCCOc1c(C)c(OC(=O)c2c(C)cc(OC)c(C)c2OC)cc(C)c1C(=O)OC measurement_type="concentration at 24 h" endpoint_value="< 2 nM"
compound_structure_string=COCCCOc1c(C)c(OC(=O)c2c(C)cc(OC)c(C)c2OC)cc(C)c1C(=O)OC measurement_type="concentration at 24 h" endpoint_value="< 2 nM"
